- measuredOn: T1, human neuropeptide Y2 receptor (human, UniProt P49146 1-381)
- T1 construct: whole, on cells; also called hNPY2 receptor; hNPY2-R
- T1 sequence (looked up): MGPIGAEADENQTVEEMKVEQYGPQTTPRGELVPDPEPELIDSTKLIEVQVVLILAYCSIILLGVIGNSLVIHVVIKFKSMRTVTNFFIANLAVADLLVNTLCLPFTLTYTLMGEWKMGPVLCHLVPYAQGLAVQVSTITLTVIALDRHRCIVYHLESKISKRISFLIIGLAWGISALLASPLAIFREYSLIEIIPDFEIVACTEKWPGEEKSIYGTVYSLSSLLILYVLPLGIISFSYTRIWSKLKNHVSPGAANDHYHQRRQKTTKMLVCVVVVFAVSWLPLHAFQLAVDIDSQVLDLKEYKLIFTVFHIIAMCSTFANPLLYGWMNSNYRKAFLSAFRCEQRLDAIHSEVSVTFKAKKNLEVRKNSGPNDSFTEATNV
- protocolNotes: RLB 8: apparent Ki of filtrate after incubation at pH 8.1-8.2
*1 amine or outer side, *2 acyl side, *3 side chain or, on linkers, in order; H or OH if unused. Side-chain parts run from the residue outwards. The star is where a group is joined. C18 diacid = O=C(O)CCCCCCCCCCCCCCCCC(=O)*; γGlu = O=C(O)[C@H](CCC(=O)[*:2])N[*:1]; Isovaleryl = CC(C)CC(=O)*; AEEA = NCCOCCOCC(=O)O
outcomeMeasure: Ki (nM)

Isovaleryl-APAK([AEEA-AEEA-γGlu-C18 diacid])PEEDASPEEIQRYYVSLRHYYNWLTRQRY-NH2 [Compound 23]: 6.3

a. Isovaleryl-APAK([AEEA-AEEA-γGlu-C18 diacid])PEEDATPEELQRYYVSLRHYYNWLTRQRY-NH2 [Compound 106]
b. Isovaleryl-APEK([AEEA-AEEA-γGlu-C18 diacid])PEADASPEEIQRYYVSLRHYYNWLTRQRY-NH2 [Compound 53]
Exercise: Which one would you say has the larger Ki value: a , or b ? Please reply using the label of the selected record.
Key: a
(a: 7.5 nM, b: 2.5 nM)
